Hello, the source for this data is ChEMBL document CHEMBL1201862, in case you need it.

Tested on: SNB-19
Test: NCI tumour cell line growth inhibition, 48 h
Activity calls are given as the source filed them. Rule as the data show it: active = GI50 up to about 1.1 µM and inactive = higher.
The compounds listed here are annotated with their GI50.

Answer with reported GI50 of Cc1nn2c(=O)c([N+](=O)[O-])c(/C=C/c3ccco3)nc2s1 59 µM (inactive)

Answer with reported GI50 of O=C(Nc1nc2ccc([N+](=O)[O-])cc2[n+]([O-])n1)C(F)(F)F 49.8 µM (inactive)

Answer with reported GI50 of COC(=O)/C=C1/CCC2[C@@H](C(=O)CC3[C@]2(C)CCC[C@@]3(C)C(=O)OC)C1C (some centres not stated) 17.4 µM (inactive)

Answer with reported GI50 of O=S(=O)(NCn1ccc2ccccc21)c1ccccc1 > 31.6 µM (inactive)

Answer with reported GI50 of Cc1c(/C=N/NC(=O)c2ccccc2O)c(=O)n(-c2ccccc2)n1C > 100 µM (inactive)

Answer with reported GI50 of N#C/C(=C\c1ccc(C(O)P(=O)(O)O)cc1)C(N)=O (configuration not stated) > 100 µM (inactive)

Answer with reported GI50 of COCO[C@@H]1C[C@H]2C(O)Nc3ccccc3C(=O)N2C1 (some centres not stated) > 100 µM (inactive)

---

Tested on: A549
Experiment: NCI tumour cell line growth inhibition, 48 h
The source made the active and inactive calls. Cut-off read from the data, not from the text of the source: active = GI50 up to about 1.1 µM and inactive = higher.
Please reply with one of these outcomes: true (1) = active, false (0) = inactive

>>> assigned_label("O=C1NC2C(=O)N(Cc3ccccc3)C(=O)C2N1 (centres undefined)")
"false (0)"
>>> assigned_label("O=c1[nH]c2cc3[nH]c4ncccc4c(=O)c3cc2[nH]1")
"false (0)"
>>> assigned_label("Oc1cc(O)c2c(c1)O[C@H](c1cc(O)c(O)c(O)c1)[C@@H](O)C2 [GALLOCATECHIN]")
"false (0)"

# evaluate next
Could you check what this test reported for COc1cc2c(c(OC)c1OC)-c1ccc(SC)c(=O)cc1C(CC(=O)Oc1cccc(F)c1)C2 (centres undefined) ? true (1)

---

Tested on: ACHN
Test: NCI tumour cell line growth inhibition, 48 h
Activity calls are given as the source filed them. No stated cut-off is given here; in the data, active = GI50 up to about 1.1 µM and inactive = higher.
Please reply with one of these outcomes: label 1 (active), label 0 (inactive)

>>> assigned_label("Cc1ccc2ccccc2c1NC1=NCCO1")
"label 0"
>>> assigned_label("CN(C)c1cccc2c(S(=O)(=O)NCCCNCCN)cccc12")
"label 0"
>>> assigned_label("C/C=C/c1cc2c(cc1O)CC[C@@H]1[C@@H]2CC[C@]2(C)[C@@H](O)CC[C@@H]12")
"label 1"

Could you check what this test reported for CC(C)c1ccc(O)c(=O)c(O)c1.CC(C)c1ccc(O)c(=O)cc1.CC(C)c1cccc(=O)c(O)c1.CC(C)c1ccccc(=O)c1O ? label 1

Could you check what this test reported for Cc1ccc(S(=O)(=O)C2=Cc3ccc(C(F)(F)F)cc3C2(O)c2cccc(C(F)(F)F)c2)cc1 (stereo not given) ? label 0

---

The compounds listed here are annotated with their GI50.
Test system: HCT-116
Assay: NCI tumour cell line growth inhibition, 48 h
Calls of active or inactive are those of the source. Cut-off read from the data, not from the text of the source: active = GI50 up to about 1.1 µM and inactive = higher.

>>> observed_value("O=Cc1cc2c(cc1-c1c(C=O)ccc3c1OCO3)OCO2")
"> 10 µM (inactive)"

With HCT-116 as the test system, provide measured GI50 for this compound: Cc1cc(S(N)(=O)=O)c(S/C(=N\Nc2ccc([N+](=O)[O-])cc2)c2ccc(Cl)cc2)cc1Cl 3.15 µM (inactive)

With HCT-116 as the test system, provide measured GI50 for this compound: Cc1cc2nc3c(C#N)c(C)c(CCCl)c(Cl)n3c2cc1C 1.57 µM (inactive)

With HCT-116 as the test system, provide measured GI50 for this compound: C[C@H]1CC[C@H](NC(=O)N(CCCl)N=O)CC1 39.6 µM (inactive)

With HCT-116 as the test system, provide measured GI50 for this compound: CCc1cc2c(oc3c4ccccc4ccc23)c(=O)[nH]1 > 10 µM (inactive)

With HCT-116 as the test system, provide measured GI50 for this compound: Cn1c(=O)c2ccccc2[n+]2c(-c3cccc([N+](=O)[O-])c3)csc12 67.5 µM (inactive)

With HCT-116 as the test system, provide measured GI50 for this compound: OCCCc1cc(O)c2c(c1)C(CO)C(c1ccc(O)c(O)c1)O2 (centres undefined) > 100 µM (inactive)

With HCT-116 as the test system, provide measured GI50 for this compound: O=S1(=O)C(c2ccccc2)C(N2CCCCC2)C1C1CC2c3ccccc3C1c1ccccc12 (centres undefined) 5.69 µM (inactive)

With HCT-116 as the test system, provide measured GI50 for this compound: O=[N+]([O-])/C=C/c1ccc(Cl)cc1Cl 3.44 µM (inactive)

---

Tested on: DU-145
Test: NCI tumour cell line growth inhibition, 48 h
The source made the active and inactive calls. Cut-off read from the data, not from the text of the source: active = GI50 up to about 1.1 µM and inactive = higher.
measured.metric: GI50

>>> observed_value("COc1cc(/C=C2\\N=C(c3ccccc3)N(c3nc4ccccc4s3)C2=O)cc(OC)c1OC")
"34.1 µM (inactive)"

Answer with reported GI50 of O=C1C(NCCc2ccc(O)c(O)c2)=CC(=O)c2ncccc21 9.86 µM (inactive)

Answer with reported GI50 of CC(C)CCC[C@@H](C)[C@H]1CC[C@H]2[C@@H]3CC[C@H]4C[C@@H](CCC=C(c5cc(Cl)c(O)c(C(=O)O)c5)c5cc(Cl)c(O)c(C(=O)O)c5)CC[C@]4(C)[C@H]3CC[C@]12C > 100 µM (inactive)

Answer with reported GI50 of CC(=O)C1=C(C)N(c2ccc(C)cc2)C2(O)C=CC(O)=C3C(=O)c4ccccc4C(=O)C312 (configuration not stated) 15.4 µM (inactive)

Answer with reported GI50 of Cc1cc(S(=O)(=O)Nc2nc(N)n(C)n2)c(S)cc1Cl > 10 µM (inactive)

Answer with reported GI50 of C=C(Nc1ccc([N+](=O)[O-])cc1[N+](=O)[O-])c1c/c(=N\NC(N)=S)c2ccccc2o1 > 100 µM (inactive)

Answer with reported GI50 of N#Cc1ccc(/C=C2\Cc3ccccc3C2=O)cc1 > 100 µM (inactive)

---

Test system: KM12
Test: NCI tumour cell line growth inhibition, 48 h
Calls of active or inactive are those of the source. No stated cut-off is given here; in the data, active = GI50 up to about 1.1 µM and inactive = higher.
The compounds listed here are annotated with their GI50.

See these solved cases before continuing.
>>> observed_value("O=C1Cc2c([nH]c3ccc(Br)cc23)-c2ccccc2N1")
"2.73 µM (inactive)"
>>> observed_value("C[C@@H]1CC[C@H]2C(C)(C)[C@H]3C[C@@]12CC[C@@]3(C)O")
"48.1 µM (inactive)"
>>> observed_value("CC(=O)C(/N=N\\C1CCC(S(=O)(=O)NB2N=CS2)CC1)C(=O)Nc1ccccc1C (stereo unspecified)")
"16 µM (inactive)"
>>> observed_value("COc1ccc2c(c1OC)C(C(Cl)(Cl)Cl)N1CCc3cc4c(cc3C1=C2)OCO4 (stereo unspecified)")
"7.6 µM (inactive)"
>>> observed_value("CC[C@@H]1/C=C/C=C/C[C@H](C)[C@@H](O)[C@@H](C)C(=O)[C@H](C)[C@@H](O)[C@H](C)C(=O)[C@H](C)[C@@H](O)[C@H](C)/C=C/C(=O)O[C@H]2[C@@H](C)[C@@H](CC1)O[C@@]1(CC[C@@H](C)[C@@H](CC(C)O)O1)[C@@H]2C (stereo partly specified)")
"3.41 µM (inactive)"
>>> observed_value("Cc1ccc2nc3cc(C)c(=O)cc-3sc2c1")
"54.1 µM (inactive)"
>>> observed_value("CN1CCc2cc(N)cc3c2C1Cc1ccc2c(c1-3)OCO2 (stereo unspecified)")
"13.5 µM (inactive)"
>>> observed_value("CCOC(=O)c1ccc(NCc2ccc3oc(=O)c(-c4ccccc4)nc3c2)cc1")
"> 100 µM (inactive)"
>>> observed_value("O=c1[nH]c(=S)c2cc3c(=S)[nH]c(=O)n(CCC(c4ccccc4)(c4ccccc4)c4ccccc4)c3nc2n1CCC(c1ccccc1)(c1ccccc1)c1ccccc1")
"> 100 µM (inactive)"
>>> observed_value("CCOC(=O)Cc1nc2ccc3c(c2nc1O)C(=O)c1ccccc1C3=O")
"14.7 µM (inactive)"

Answer with reported GI50 of COc1ccc(-c2cc(O)c3c(C)cc(C)nc3n2)cc1 34.8 µM (inactive)

---

System: SNB-75
Experiment: NCI tumour cell line growth inhibition, 48 h
Calls of active or inactive are those of the source. Cut-off read from the data, not from the text of the source: active = GI50 up to about 1.1 µM and inactive = higher.
The compounds listed here are annotated with their GI50.

>>> observed_value("CC(=O)OC1COC(n2c(=S)n(-c3ccccc3)c(=O)c3ccccc32)C(OC(C)=O)C1OC(C)=O (centres undefined)")
"> 100 µM (inactive)"
>>> observed_value("C=C(Nc1ccc([N+](=O)[O-])cc1[N+](=O)[O-])c1c/c(=N\\NC(N)=S)c2ccccc2o1")
"74.8 µM (inactive)"
>>> observed_value("COc1ccc(/C=C2\\CCCC(C(NO)c3ccc(OC)cc3)C2=NO)cc1 (centres undefined)")
"26.3 µM (inactive)"

Answer with reported GI50 of CCOC(=O)/C=C/CCC(C)(C)COC(C)=O > 10 µM (inactive)
